# target-system: UniProtKB Q99572
# Sequence (Q99572 1-595): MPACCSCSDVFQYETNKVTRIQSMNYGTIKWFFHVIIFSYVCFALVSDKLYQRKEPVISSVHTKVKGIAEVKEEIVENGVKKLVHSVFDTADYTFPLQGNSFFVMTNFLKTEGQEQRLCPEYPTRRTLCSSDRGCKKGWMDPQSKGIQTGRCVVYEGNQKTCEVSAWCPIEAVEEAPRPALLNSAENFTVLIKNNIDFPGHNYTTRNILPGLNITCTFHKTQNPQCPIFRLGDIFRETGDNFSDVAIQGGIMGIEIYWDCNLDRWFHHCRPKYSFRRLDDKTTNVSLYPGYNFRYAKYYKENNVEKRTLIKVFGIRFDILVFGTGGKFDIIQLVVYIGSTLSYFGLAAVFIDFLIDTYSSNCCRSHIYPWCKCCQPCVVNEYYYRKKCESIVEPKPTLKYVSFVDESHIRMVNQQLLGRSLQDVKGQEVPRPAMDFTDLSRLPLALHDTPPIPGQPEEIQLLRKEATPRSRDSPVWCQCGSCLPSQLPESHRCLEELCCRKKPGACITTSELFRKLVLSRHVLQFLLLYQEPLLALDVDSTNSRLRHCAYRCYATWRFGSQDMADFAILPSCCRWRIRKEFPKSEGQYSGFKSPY
# assay-name: pIC50 values for P2X7 (Table 1)
# Assay type: cell-based
Here, each record is paired with measured pIC50 P2X7 data.

Example cases with answers are listed next.
compound: COc1cc(CC(=O)N2C=CC(=O)C[C@H]2c2ccc(F)cc2)c(Br)cc1C [Compound 29]
data-value: 6.625
--
compound: COc1cc(Br)c(CC(=O)N2C=CC(=O)CC2C2CCCCC2)cc1OC (centres unmarked) [Compound 10]
data-value: 7.193
--
compound: COc1cc(I)c(CC(=O)N2C=CC(=O)C[C@@H]2c2ccccc2)cc1OC [Compound 5]
data-value: 5.425
--
compound: COc1cccc(C2CC(=O)C=CN2C(=O)Cc2cc(OC)c(OC)cc2Br)c1 (centres unmarked) [Compound 28]
data-value: 5.415

Query compound follows.
Recorded pIC50 P2X7 of COc1cc(CC(=O)N2C=CC(=O)CC2c2ccc(F)cc2)c(Br)cc1C (centres unmarked) [Compound 31] , please.
6.59
